This collection of values is drawn from PubChem BioAssay AID1159580.

experiment: chemical genetic growth profiling, strain panel (AID 1159580);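 also: tested at 20 µM; growth read once vehicle control cultures reached saturation at 30 °C; 1 = growth at the plate median or of vehicle wells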; conditions: S. cerevisiae deletion strains, growth OD, locus YMR277W, strain FCP1, stronger effect = lower value
In all, about 5,500 compounds went through this assay and about 2,000 (36%) were called active. Not shown: some 18% with an inconclusive outcome. This is one part of the list.
Item-by-item account of normalized growth

Sample answers from the record:
[[record]]
compound = "COc1cccc(C2CCN(C(=O)c3cccc4ccccc34)CC2)c1"
property_name = "normalized growth"
result = "0.995 (inactive)"

[[record]]
compound = "O=C(Oc1cccc2[nH]ccc12)c1ccc(C(F)(F)F)cc1"
property_name = "normalized growth"
result = "0.96 (inactive)"

[[record]]
compound = "Cc1ccc(S(=O)(=O)NC(=O)Nc2ccc(Sc3ccccc3)nc2Sc2ccccc2)cc1"
property_name = "normalized growth"
result = "0.965 (inactive)"

[[record]]
compound = "Cc1ccc(Nc2ccnc3cc(Cl)ccc23)cc1F"
property_name = "normalized growth"
result = "0.995 (inactive)"

[[record]]
compound = "COc1ccc(C(CC(=O)c2ccccc2)Sc2ccccc2N)cc1OC (stereo not given)"
property_name = "normalized growth"
result = "0.983 (inactive)"


For `CC(=O)/C(C#N)=N\Nc1ccc(F)cc1` the compound record lists normalized growth as 0.349 (active)

For `Cc1cc(C)cc(Sc2ccc3nnc(-c4ccccc4)n3n2)c1` the compound record lists normalized growth as 0.986 (inactive)

For `O=[N+]([O-])c1ccc(-c2noc(-c3ccno3)n2)o1` the compound record lists normalized growth as 0.0929 (active)

* * *

experiment: chemical genetic growth profiling, strain panel (AID 1159580); details: S. cerevisiae deletion strains, growth OD, locus YDR363W, strain ESC2
About 2,000 (36%) of roughly 5,500 compounds were called active. About 18% were inconclusive and are not listed. No stated cut-off is given here; in the data, active means normalized growth mostly below about 0.91 (no sharp cut-off); inconclusive means no clear call, values can overlap the other calls; inactive means mostly above about 0.92. Some of the results follow.
// one of class 1 for active, class 0 for inactive, no free text

As a guide, the following entries are already answered.
[[record]]
molecule = "Fc1ccc(C(OCCN2CCN(CCCc3ccccc3)CC2)c2ccc(F)cc2)cc1"
group = "class 1"

[[record]]
molecule = "CCCCCCCCCCCCCCCCCCNC(=O)OCC(COP(=O)([O-])OCC[n+]1ccsc1)OC (stereo unspecified)"
group = "class 0"

[[record]]
molecule = "c1ccc(CCCN2CCN(CCOC(c3ccccc3)c3ccccc3)CC2)cc1"
group = "class 0"

[[record]]
molecule = "CCCCCCCCCCCCCCCC(=O)NCC(COP(=O)([O-])OCC[N+](C)(C)C)OCC (stereo unspecified)"
group = "class 1"

[[record]]
molecule = "O=C1NCC2(CCN(CCc3ccccc3)CC2)O1"
group = "class 0"


Any idea what this test logged for Cc1ccccc1C(OCCN(C)C)c1ccccc1 (stereo unspecified) ?
class 0

* * *

assay: chemical genetic growth profiling, strain panel (AID 1159580); conditions: S. cerevisiae deletion strains, growth OD, locus YGR229C, strain SMI1
Hit rate of the full screen: of about 5,500 compounds, about 2,000 (36%) were called active. Roughly 18% stayed inconclusive and do not appear here. No stated cut-off is given here; in the data, active means normalized growth mostly below about 0.91 (no sharp cut-off); inconclusive means no clear call, values can overlap the other calls; inactive means mostly above about 0.92. Some of the results follow.
// one of t (active), f (inactive), no free text

As a guide, the following entries are already answered.
[[record]]
molecule = "CC[C@H]1OC(=O)[C@H](C)[C@@H](O[C@H]2C[C@@](C)(OC)[C@@H](O)[C@H](C)O2)[C@H](C)[C@@H](O[C@@H]2O[C@H](C)C[C@H](N(C)C)[C@H]2O)[C@](C)(OC)C[C@@H](C)C(=O)[C@H](C)[C@@H](O)[C@]1(C)O"
group = "f"

[[record]]
molecule = "Oc1cc(O)c2c(c1)OC(c1cc(O)c(O)c(O)c1)C(O)C2c1c(O)cc(O)c2c1OC(c1cc(O)c(O)c(O)c1)C(O)C2c1c(O)cc(O)c2c1OC(c1cc(O)c(O)c(O)c1)C(O)C2 (stereo not drawn)"
group = "t"

[[record]]
molecule = "COc1c(N2CCNC(C)C2)c(F)cc2c(=O)c(C(=O)O)cn(C3CC3)c12 (stereo not drawn)"
group = "f"

[[record]]
molecule = "CCCOc1ccccc1/C=N\\NC(=S)Nc1cccc(F)c1"
group = "f"

[[record]]
molecule = "CC1COc2c(N3CCN(C)CC3)c(F)cc3c(=O)c(C(=O)O)cn1c23 (stereo not drawn)"
group = "f"


Any idea what this test logged for `O=C(O)c1cncc(C#Cc2ccccc2)c1` ?
f

Any idea what this test logged for `C/C(=N/O)c1sc2nc(C(F)(F)F)nn2c1C` ?
f

Any idea what this test logged for `C[n+]1c2cc(N)ccc2cc2ccc(N)cc21` ?
t

* * *

assay: chemical genetic growth profiling, strain panel (AID 1159580);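 also: tested at 20 µM; growth read once vehicle control cultures reached saturation at 30 °C; 1 = growth at the plate median or of vehicle wells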; details: S. cerevisiae deletion strains, growth OD, locus YBL061C, strain skt5, stronger effect = lower value
In all, about 5,500 compounds went through this assay and about 2,000 (36%) were called active. Another 18% or so got no clear call; they are omitted. Some of the results follow.
Item-by-item account of normalized growth
The answer should be a number; do not append a unit.

[[record]]
molecule = "O=C1C(Cl)=C(Cl)C(=O)C(Cl)=C1Cl"
result = 0.994

[[record]]
molecule = "CN(C)CCCC1(c2ccc(F)cc2)OCc2cc(C#N)ccc21 (configuration not stated)"
result = 0.991

[[record]]
molecule = "O=C(O)/C=C/c1ccc(O)c(O)c1"
result = 0.996

[[record]]
molecule = "CC[C@]1(O)CC2CN(CCc3c([nH]c4ccccc34)[C@@](C(=O)OC)(c3cc4c(cc3OC)N(C)[C@H]3[C@@](O)(C(=O)OC)[C@H](OC(C)=O)[C@]5(CC)C=CCN6CC[C@]43[C@@H]65)C2)C1 (some centres not stated)"
result = 0.975

[[record]]
molecule = "C[C@]12CCC(=O)C=C1C=CC1C2CC[C@@]2(C)C1CC[C@@]21CCC(=O)O1 (some centres not stated)"
result = 0.977

[[record]]
molecule = "Cc1[nH]c2ccccc2c1CN(C)C"
result = 1.02

[[record]]
molecule = "CC1(C)S[C@@H]2[C@H](NC(=O)[C@H](N)c3ccccc3)C(=O)N2[C@H]1C(=O)O"
result = 0.973

[[record]]
molecule = "CCn1cc(C(=O)O)c(=O)c2cc(F)c(N3CCNC(C)C3)c(F)c21 (configuration not stated)"
result = 0.962


For CN1C2CCC1CC(OC(c1ccccc1)c1ccccc1N)C2 (configuration not stated) the molecule record lists normalized growth as 0.995

* * *

Item-by-item account of normalized growth
assay: chemical genetic growth profiling, strain panel (AID 1159580);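 also: tested at 20 µM; growth read once vehicle control cultures reached saturation at 30 °C; 1 = growth at the plate median or of vehicle wells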; conditions: S. cerevisiae deletion strains, growth OD, locus YOR061W, strain CKA2, stronger effect = lower value
Screen size: about 5,500 compounds; about 2,000 (36%) were called active. Another 18% or so got no clear call; they are omitted. The list shows a part of the results.
The answer should be a number; do not append a unit.

[[record]]
compound = "COc1cc(Cl)ccc1N/N=C(/C#N)C(N)=O"
result = 0.0994


For `Oc1cc(O)c2c(c1)O[C@H](c1ccc(O)c(O)c1)[C@H](O)C2` the compound record lists normalized growth as 0.998

* * *

experiment: chemical genetic growth profiling, strain panel (AID 1159580);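 also: tested at 20 µM; growth read once vehicle control cultures reached saturation at 30 °C; 1 = growth at the plate median or of vehicle wells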; settings: S. cerevisiae deletion strains, growth OD, locus YNL322C, strain KRE1, stronger effect = lower value
About 2,000 (36%) of roughly 5,500 compounds were called active. Inconclusive results (about 18%) are left out. The list shows a part of the results.
Property name: normalized growth
The answer should be a number; do not append a unit.

For `S=c1nc2[nH]c3ccccc3c2n[nH]1` the molecule record lists normalized growth as 0.991

For `CCCOc1ccccc1/C=N\NC(=S)Nc1cccc(F)c1` the molecule record lists normalized growth as 1.03

For CCCCCCC(C)OC(=O)COc1cc(Cl)c(Cl)cc1Cl (configuration not stated) the molecule record lists normalized growth as 1

For OCC(O)CN1CCN(c2ccccc2)CC1 (configuration not stated) the molecule record lists normalized growth as 1

For OC1(c2ccc(F)cc2)Cc2ccccc2C2=NCCN21 (configuration not stated) the molecule record lists normalized growth as 0.992

For `COc1ccc(C(=O)CC(=O)O)c2c1C=CC(C)(C)O2` the molecule record lists normalized growth as 0.998

For `c1ccc(OCCOc2ccccn2)nc1` the molecule record lists normalized growth as 1.01

For `Cc1ccc(C)n1-c1ccc(C(=O)NNC(=O)c2ccc3nccnc3c2)cc1` the molecule record lists normalized growth as 0.999

For `O=C(/C=C/c1ccc(O)c(O)c1)OCCc1ccccc1` the molecule record lists normalized growth as 0.881

For O=C(OCC(O)CO)c1ccccc1Nc1ccnc2cc(Cl)ccc12 (configuration not stated) the molecule record lists normalized growth as 0.988

For NCCC(O)C(=O)NC1CC(N)C(OC2OC(CN)C(O)C(O)C2N)C(OC2OC(CO)C(O)C2O)C1O (configuration not stated) the molecule record lists normalized growth as 0.997

For `O=C(O)/C=C/c1ccc(O)c(O)c1` the molecule record lists normalized growth as 1.02
